target: T1, MET928 (cMET protein derived from construct 25-928) (human, UniProt P08581 25-928); test: ELISA, soluble scFv
T1 construct: MET ectodomain, residues 1-24 are the leader; produced in Lec 8 cells; background text says the ectodomain is furin-cleaved into alpha (25-307) and beta chains; biotinylated form used in selections; also called MET928 extracellular domain; Met extracellular domain
T1 sequence (P08581 25-928): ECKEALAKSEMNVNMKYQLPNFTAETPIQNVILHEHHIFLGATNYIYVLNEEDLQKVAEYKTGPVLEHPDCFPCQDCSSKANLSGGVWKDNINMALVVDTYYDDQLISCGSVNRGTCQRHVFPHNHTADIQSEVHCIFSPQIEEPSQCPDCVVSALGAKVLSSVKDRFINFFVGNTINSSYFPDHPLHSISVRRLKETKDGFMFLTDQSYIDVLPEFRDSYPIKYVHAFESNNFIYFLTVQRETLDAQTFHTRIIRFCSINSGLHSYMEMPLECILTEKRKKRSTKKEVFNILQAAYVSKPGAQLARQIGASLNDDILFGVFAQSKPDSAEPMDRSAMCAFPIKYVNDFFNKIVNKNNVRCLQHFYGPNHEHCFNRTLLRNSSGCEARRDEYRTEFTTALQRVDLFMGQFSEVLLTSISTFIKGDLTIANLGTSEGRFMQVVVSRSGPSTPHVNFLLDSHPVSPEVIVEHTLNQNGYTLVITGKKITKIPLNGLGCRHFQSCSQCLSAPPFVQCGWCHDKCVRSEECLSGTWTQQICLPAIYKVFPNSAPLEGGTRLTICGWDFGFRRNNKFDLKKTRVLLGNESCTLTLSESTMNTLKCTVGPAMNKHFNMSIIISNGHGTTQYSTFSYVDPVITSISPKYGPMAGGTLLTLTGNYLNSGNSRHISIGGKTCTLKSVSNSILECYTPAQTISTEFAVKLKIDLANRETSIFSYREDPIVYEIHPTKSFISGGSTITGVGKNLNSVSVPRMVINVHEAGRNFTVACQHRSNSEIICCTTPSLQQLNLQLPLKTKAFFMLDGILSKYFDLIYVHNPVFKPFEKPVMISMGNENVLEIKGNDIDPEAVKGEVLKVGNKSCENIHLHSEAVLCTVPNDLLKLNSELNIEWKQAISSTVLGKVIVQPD
experimental.endpoint: binding result

109_H6 (scFv, not shown: 6xHis/tri-FLAG tags) scFv: QMQLVQSGAEVKKPGAPVKVSCKVSGYTFTDYYMHWVQQAPGKGLEWMGLVDPEDGETIYAEKFQGRVTITADTSTDTAYMELSSLRSEDTAVYYCATDATTPYWFPRTWGQGTLVTVSSLEGGGGSGGGGSGGGASDIQMTQSPSSLSASVGDRVTITCQASQDISNYLNWYQQKPGRAPKVLIYDASNLETGVPSRFSGSGSGTEFTLTISNLRPDDFATYYCQQGDSFPLTFGGGTKVEIK = binds
108_C8 (scFv, not shown: 6xHis/tri-FLAG tags) scFv: QMQLVQSGAEVKKPGAPVKVSCKVSGYTFTDYYMHWVQQAPGKGLEWMGLVDPEDGETIYAEKFQGRVTITADTSTDTAYMELSSLRSEDTAVYYCATDATTPYWFPYIWGQGTLVTVSSLEGGGGSGGGGSGGGASDIQMTQSPSSLSASVGDRVTITCQASQDISNYLNWYQQKPGRAPKVLIYDASNLETGVPSRFSGSGSGTEFTLTISNLRPDDFATYYCQQGDSFPLTFGGGTKVEIK = binds
107_A5 (scFv, not shown: 6xHis/tri-FLAG tags) scFv: QMQLVQSGAEVKKPGAPVKVSCKVSGYTFTDYYMHWVQQAPGKGLEWMGLVDPEDGETIYAEKFQGRVTITADTSTDTAYMELSSLRSEDTAVYYCATDATTPYWGMSKWGQGTLVTVSSLEGGGGSGGGGSGGGASDIQMTQSPSSLSASVGDRVTITCQASQDISNYLNWYQQKPGRAPKVLIYDASNLETGVPSRFSGSGSGTEFTLTISNLRPDDFATYYCQQGDSFPLTFGGGTKVEIK = binds
